study-target: CYP3A4-T (Homo sapiens (Human), UniProt P08684)
Sequence (P08684 whole entry): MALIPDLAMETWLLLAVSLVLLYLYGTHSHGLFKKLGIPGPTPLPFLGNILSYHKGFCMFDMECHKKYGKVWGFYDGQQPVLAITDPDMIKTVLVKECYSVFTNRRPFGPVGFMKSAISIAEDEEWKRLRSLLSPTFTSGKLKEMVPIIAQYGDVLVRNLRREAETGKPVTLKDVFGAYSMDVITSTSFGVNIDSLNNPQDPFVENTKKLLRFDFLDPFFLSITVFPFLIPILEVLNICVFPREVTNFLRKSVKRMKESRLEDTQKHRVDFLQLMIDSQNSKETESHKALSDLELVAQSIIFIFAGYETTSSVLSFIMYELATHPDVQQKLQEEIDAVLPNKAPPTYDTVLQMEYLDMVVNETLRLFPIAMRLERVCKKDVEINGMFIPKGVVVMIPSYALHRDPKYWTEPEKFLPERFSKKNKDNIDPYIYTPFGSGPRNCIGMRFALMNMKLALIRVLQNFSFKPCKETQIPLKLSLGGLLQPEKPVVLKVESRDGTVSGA
assay: CYP450 inhibition activity assay (Vivid kit) CYP3A4-T
condition-info: CYP450 subtype (μM) 3A4-T (IC50)
Would you mind telling me the reported IC50 of each entry?

>>> result("Cc1nnc(C(C)C)n1C1CC2CCC(C1)N2CC[C@H](NC(=O)C1CCCC1)c1cccs1 (stereo partly drawn) [Compound 18]")
"> 25 µM"
>>> result("Cc1nnc(C(C)C)n1C1CC2CCC(C1)N2CC[C@H](NC(=O)C1CCC(F)(F)CC1)c1ccsc1 (stereo partly drawn) [Compound 22]")
"> 25 µM"

Let's switch to this compound now.
Recorded IC50 for Cc1nnc(C(C)C)n1C1CCN(CC[C@H](NC(=O)C2CCCC2)c2cccs2)CC1 [Compound 17] with CYP3A4-T (Homo sapiens (Human), UniProt P08684), please? > 25 µM
